Assay: Equilibrium solubility in phosphate buffer at different pH
Type: physicochemical
Settings: 20 °C, aqueous buffer, thermodynamic from solid; phosphate buffer pH 5
Protocol: The solubility was recorded at 20 °C in the present study. The solubility under equilibrium conditions was determined using the saturation shake-flask method with minor modifications. […] Equilibrium solubility and apparent oil-water partition coefficient of SBE in pH 5.0, 6.0, 6.5, 7.0, 7.4 and 8.0 phosphate buffer were also determined. Equilibrium solubility was determined by the method described above. […]

compound	solubility thermodynamic at 48 h
C=C(C)[C@@H]1CC[C@]2(COC(=O)CCC(=O)O)CC[C@]3(C)C(CCC4[C@@]5(C)CC[C@H](O)C(C)(C)C5CC[C@]43C)C12 (stereo partly shown) [SBE, 28-O-succinyl betulin]	2.79 µg/mL

====

assay: Equilibrium solubility in phosphate buffer at different pH; type: physicochemical; conditions: 20 °C, aqueous buffer, thermodynamic from solid; phosphate buffer pH 6.5
recorded_metric: solubility thermodynamic at 48 h (µg/mL)

compound	recorded_result
C=C(C)[C@@H]1CC[C@]2(COC(=O)CCC(=O)O)CC[C@]3(C)C(CCC4[C@@]5(C)CC[C@H](O)C(C)(C)C5CC[C@]43C)C12 (stereo partly shown) [SBE, 28-O-succinyl betulin]	2.46

====

assay: Equilibrium solubility in phosphate buffer at different pH; type: physicochemical; settings: 20 °C, aqueous buffer, thermodynamic from solid; phosphate buffer pH 7.4

compound	unit	solubility thermodynamic at 48 h
C=C(C)[C@@H]1CC[C@]2(COC(=O)CCC(=O)O)CC[C@]3(C)C(CCC4[C@@]5(C)CC[C@H](O)C(C)(C)C5CC[C@]43C)C12 (stereo partly shown) [SBE, 28-O-succinyl betulin]	µg/mL	29.8

====

experiment: Equilibrium solubility in different solvents (saturation shake-flask, HPLC); format: physicochemical; details: ethanol, 20 °C, organic solvent or mixture, thermodynamic from solid
recorded_metric: solubility thermodynamic at 48 h (µg/mL)

molecule	recorded_result
C=C(C)[C@@H]1CC[C@]2(C(=O)O)CC[C@]3(C)[C@H](CC[C@@H]4[C@@]5(C)CC[C@H](O)C(C)(C)[C@@H]5CC[C@]43C)[C@@H]12 [BA, 3β-hydroxy-lup-20(29)-en-28-oic acid, reference compound]	4130

====

test: Equilibrium solubility in different solvents (saturation shake-flask, HPLC); format: physicochemical; details: acetonitrile, 20 °C, organic solvent or mixture, thermodynamic from solid

compound	unit	solubility thermodynamic at 48 h
C=C(C)[C@@H]1CC[C@]2(C(=O)O)CC[C@]3(C)[C@H](CC[C@@H]4[C@@]5(C)CC[C@H](O)C(C)(C)[C@@H]5CC[C@]43C)[C@@H]12 [BA, 3β-hydroxy-lup-20(29)-en-28-oic acid, reference compound]	µg/mL	250

====

test: Apparent oil/water partition coefficient (water-saturated n-octanol vs phosphate buffer); assay type: physicochemical; details: water-saturated n-octanol/phosphate buffer, pH 6, n-octanol/phosphate buffer pH 6; read-out: LogP
recorded_metric: logP

molecule	recorded_metric	recorded_result
C=C(C)[C@@H]1CC[C@]2(COC(=O)CCC(=O)O)CC[C@]3(C)C(CCC4[C@@]5(C)CC[C@H](O)C(C)(C)C5CC[C@]43C)C12 (stereo partly shown) [SBE, 28-O-succinyl betulin]	logP	0.98

====

assay: Apparent oil/water partition coefficient (water-saturated n-octanol vs phosphate buffer); format: physicochemical; settings: water-saturated n-octanol/phosphate buffer, pH 7.4, n-octanol/phosphate buffer pH 7.4; read-out: LogP
recorded_metric: logP

> print(dat)
                                   compound  recorded.result
1  C=C(C)[C@@H]1CC[C@]2(COC(=O)CCC(=O)O)CC[C@]3(C)C(CCC4[C@@]5(C)CC[C@H](O)C(C)(C)C5CC[C@]43C)C12 (stereo partly shown)             0.91

Ref: paper PMC10419975
